FYI, the data here is from patent EP4786492A1.

# assayed_system: human delta-like ligand 3 (DLL3) on SHP77 cells (human) (UniProt Q9NYJ7)
# Sequence (Q9NYJ7 27-618, stated change not applied): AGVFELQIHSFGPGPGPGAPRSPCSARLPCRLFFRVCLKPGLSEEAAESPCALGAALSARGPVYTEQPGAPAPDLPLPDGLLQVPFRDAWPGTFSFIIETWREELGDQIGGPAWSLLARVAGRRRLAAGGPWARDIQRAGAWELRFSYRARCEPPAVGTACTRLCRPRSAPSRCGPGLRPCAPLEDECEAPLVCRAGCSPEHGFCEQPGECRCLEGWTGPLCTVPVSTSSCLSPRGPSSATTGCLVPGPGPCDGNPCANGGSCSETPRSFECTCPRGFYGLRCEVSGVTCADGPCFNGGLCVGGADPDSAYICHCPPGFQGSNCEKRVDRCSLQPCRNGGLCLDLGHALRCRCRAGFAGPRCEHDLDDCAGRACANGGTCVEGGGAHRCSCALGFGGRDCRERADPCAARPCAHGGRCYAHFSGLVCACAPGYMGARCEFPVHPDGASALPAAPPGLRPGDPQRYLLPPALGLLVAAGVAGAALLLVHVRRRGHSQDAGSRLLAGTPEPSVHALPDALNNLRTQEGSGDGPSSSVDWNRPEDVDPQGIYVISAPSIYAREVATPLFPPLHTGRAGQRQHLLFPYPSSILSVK
# experimental_protocol: FACS on SHP77 cells
quantity_kind: MFI at 4 nM (MFI)
Hi! Could you send only the number? It should be in MFI, unit omitted.

Param item = Hab015VL5VH5a-hFc (scFv, part only; not given: scFv linker and human IgG1 Fc, V domains shown, not shown: another chain or arm of the molecule; a dimerising Fc or GST; small tags and cut ends) VL: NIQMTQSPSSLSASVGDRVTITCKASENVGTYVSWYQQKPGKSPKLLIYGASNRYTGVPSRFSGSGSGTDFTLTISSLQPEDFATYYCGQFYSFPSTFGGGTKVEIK VH: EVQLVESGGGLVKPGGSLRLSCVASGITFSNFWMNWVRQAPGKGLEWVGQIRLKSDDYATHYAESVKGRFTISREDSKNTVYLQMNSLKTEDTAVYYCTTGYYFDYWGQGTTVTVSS ; retrieve measured MFI at 4 nM.
785

Param item = Hab009VL1aVH1-hFc (scFv, part only; not given: scFv linker and human IgG1 Fc, V domains shown, not shown: another chain or arm of the molecule; a dimerising Fc or GST; small tags and cut ends) VL: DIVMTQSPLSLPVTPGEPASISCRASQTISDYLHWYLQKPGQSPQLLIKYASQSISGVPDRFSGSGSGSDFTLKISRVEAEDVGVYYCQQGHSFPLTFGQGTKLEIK VH: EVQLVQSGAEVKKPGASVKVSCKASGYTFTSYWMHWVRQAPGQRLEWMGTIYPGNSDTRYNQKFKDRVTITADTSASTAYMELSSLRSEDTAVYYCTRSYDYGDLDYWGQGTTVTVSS ; retrieve measured MFI at 4 nM.
783

Param item = Hab008L3H2a-hFc (scFv, part only; not given: VL-VH linker and human IgG1 Fc, V domains shown, not shown: another chain or arm of the molecule; a dimerising Fc or GST; small tags and cut ends) VL: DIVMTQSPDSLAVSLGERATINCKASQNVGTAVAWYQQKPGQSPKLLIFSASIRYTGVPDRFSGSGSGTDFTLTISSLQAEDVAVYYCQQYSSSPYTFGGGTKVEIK VH: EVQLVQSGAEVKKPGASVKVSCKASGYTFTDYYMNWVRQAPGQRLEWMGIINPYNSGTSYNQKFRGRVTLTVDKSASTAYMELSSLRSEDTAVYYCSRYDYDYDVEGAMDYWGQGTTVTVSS ; retrieve measured MFI at 4 nM.
255
